Entry source: patent US7842703B2

Molecular target: Human TRPV1 expressing CHO cells (Homo sapiens, UniProt Q8NER1)
Sequence (Q8NER1 whole entry): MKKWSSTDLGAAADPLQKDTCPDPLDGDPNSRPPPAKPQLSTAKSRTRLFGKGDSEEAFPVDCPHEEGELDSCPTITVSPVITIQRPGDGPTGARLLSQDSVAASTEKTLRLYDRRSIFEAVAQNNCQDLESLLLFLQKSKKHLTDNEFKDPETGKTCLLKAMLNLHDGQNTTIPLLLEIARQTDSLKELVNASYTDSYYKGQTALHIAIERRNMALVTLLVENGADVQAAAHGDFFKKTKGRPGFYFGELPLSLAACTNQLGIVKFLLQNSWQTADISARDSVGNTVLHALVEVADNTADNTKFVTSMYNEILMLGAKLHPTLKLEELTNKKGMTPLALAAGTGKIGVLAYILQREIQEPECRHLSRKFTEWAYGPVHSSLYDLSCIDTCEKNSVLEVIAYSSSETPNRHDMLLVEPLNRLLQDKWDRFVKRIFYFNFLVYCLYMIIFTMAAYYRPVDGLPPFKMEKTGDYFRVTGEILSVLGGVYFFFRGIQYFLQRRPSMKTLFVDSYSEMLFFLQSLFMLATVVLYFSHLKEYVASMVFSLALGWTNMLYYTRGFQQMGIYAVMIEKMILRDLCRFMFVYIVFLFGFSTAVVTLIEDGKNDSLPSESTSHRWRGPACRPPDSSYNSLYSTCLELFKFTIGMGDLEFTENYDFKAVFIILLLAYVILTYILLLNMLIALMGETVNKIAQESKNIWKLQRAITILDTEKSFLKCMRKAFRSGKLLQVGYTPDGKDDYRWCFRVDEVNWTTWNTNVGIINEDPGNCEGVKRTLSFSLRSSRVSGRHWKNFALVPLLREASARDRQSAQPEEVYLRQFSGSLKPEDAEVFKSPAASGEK
Test: Screening for TRPV1 antagonist using the 45Calcium uptake assay (inhibition of capsaicin induced cellular uptake of radioactive calcium)
Conditions: inhibition of capsaicin (250 nM) induced ^45Ca uptake
Method: The inhibition of TRPV1 receptor activation was followed as inhibition of capsaicin induced cellular uptake of radioactive calcium which represents calcium influx exclusively through the plasma membrane associated TRPV1 receptor. […] Assay was carried out with some modifications the of procedure as described by Toth et. al. (See Toth A et. al., Life Sciences 73 p 487-498, 2003). […] Radioactivity in samples was measured as counts per minute (cpm) using Packard Biosciences Top Count. […]
pIC50: −log10 of the molar value.
Measure name: pIC50

A: O=C(Nc1ccc(Cl)c2cnccc12)NC1CC2(CCC2)Oc2ccccc21 (racemic)
B: O=C(Nc1cccc2cnccc12)NC1CC2(CCC2)Oc2c(F)cc(F)cc21 (single isomer, unassigned; (+)) [Example 59]
C: O=C(Nc1cccc2cnccc12)NC1CC2(CCC2)Oc2c(F)cc(F)cc21 (stereo not shown) [Example 48]
D: O=C(Nc1cccc2c[n+]([O-])ccc12)NC1CC2(CCC2)Oc2ccccc21 (single isomer, unassigned; (+)) [Example 10]
Reorder: pIC50, max to min. Rank the items, then write their labels in that order.
B, C, D, A
(B: 8.12, C: 7.79, D: 6.98, A: 6.47)

====

Target: Human TRPV1 expressing CHO cells (Homo sapiens, UniProt Q8NER1)
Assay: Screening for TRPV1 antagonist using the 45Calcium uptake assay (inhibition of capsaicin induced cellular uptake of radioactive calcium)
Conditions: inhibition of capsaicin (250 nM) induced ^45Ca uptake
pIC50: −log10 of the molar value.
Measure name: pIC50

P: O=C(Nc1cccc2cnccc12)NC1CC2(CCC2)Oc2ccc(Cl)cc21 (racemic) [Example 63]
Q: O=C(Nc1cccc2c[n+]([O-])ccc12)NC1CC2(CCC2)Oc2ccccc21 (racemic) [Example 9]
Kindly compare P with Q and tell me which has the lower pIC50 figure. // caller expects the label of the chosen entry
P
(P: 6.51, Q: 6.99)

====

Target: Human TRPV1 expressing CHO cells (Homo sapiens, UniProt Q8NER1)
Construct: expressed in transfected cells; host or cells: CHO cells under G-418 selection
Assay: Screening for TRPV1 antagonist using the 45Calcium uptake assay (inhibition of capsaicin induced cellular uptake of radioactive calcium)
Format: cell-based
Settings: CHO, test compound 1 μM, capsaicin 250 nM, relative to maximum ^45Ca uptake induced by capsaicin alone
Measure name: inhibition at 1 µM

Before answering, review these 4 worked examples.
O=C(Nc1cccc2cnccc12)NC1CC2(CCC2)Oc2ccc(F)cc21 (single isomer, unassigned; (-)) [Example 44]	< 50%
O=C(NCc1ccccn1)NC1CC2(CCC2)Oc2ccccc21 (racemic)	< 50%
O=C(Nc1cccc2cnccc12)NC1CC2(CCC2)Oc2cc(Cl)ccc21 (single isomer, unassigned; (-))	< 50%
COc1ccc2c(c1)C(NC(=O)Nc1cccc3cnccc13)CC1(CCC1)O2 (racemic)	> 50%

Quick one: inhibition at 1 µM for O=C(NCc1ccncc1)N[C@H]1CC2(CCC2)Oc2ccccc21 ?
0%

Next up: O=C(Nc1cccc2cnccc12)NC1CC2(CCC2)Oc2cc(O)ccc21 (racemic)
< 50%

Next up: COc1ccc2c(c1)OC1(CCC1)CC2NC(=O)Nc1cccc2cnccc12 (racemic)
> 50%

Next up: O=C(Nc1cccc2cnccc12)NC1CC2(CCC2)Oc2ccc(OC3CCCC3)cc21 (racemic)
< 50%

Next up: O=C(Nc1cccc2cnccc12)NC1CC2(CCC2)Oc2c(OC(F)F)cccc21 (racemic)
< 50%

Next up: O=C(Nc1cccc2ncccc12)NC1CC2(CCC2)Oc2ccccc21 (racemic)
19.8%

Next up: O=C(NCc1cccnc1)NC1CC2(CCC2)Oc2ccccc21 (racemic)
< 50%

Next up: O=C(Nc1cccc2cnccc12)NC1CC2(CCC2)Oc2c(F)cc(F)cc21 (single isomer, unassigned; (+)) [Example 59]
> 50%

Next up: Nc1ccc2c(c1)C(NC(=O)Nc1cccc3cnccc13)CC1(CCC1)O2 (racemic)
< 50%

Next up: O=C(Nc1cccc2cnccc12)NC1CC2(CCC2)Oc2ccc(Br)cc21 (racemic)
> 50%

Next up: O=C(Nc1cccc2cnccc12)NC1CC2(CCC2)Oc2ccc(O)cc21 (racemic)
< 50%

Next up: O=C(Nc1cccc2cnccc12)NC1CC2(CCC2)Oc2ccc(Cl)cc21 (racemic) [Example 63]
> 50%

Next up: O=C(Nc1cccc2cnccc12)NC1CC2(CCC2)Oc2c(Cl)cccc21 (racemic)
> 50%

Next up: O=C(Nc1nnc(-c2ccc([N+](=O)[O-])cc2)s1)NC1CC2(CCC2)Oc2ccccc21 (racemic)
< 50%

====

Known % inhibition of ^45Ca uptake at 1 μM of a selection of compounds
Target: Human TRPV1 expressing CHO cells (Homo sapiens)
Construct: expressed in transfected cells; host or cells: CHO cells under G-418 selection
Test: Screening for TRPV1 antagonist using the 45Calcium uptake assay (inhibition of capsaicin induced cellular uptake of radioactive calcium)
Format: cell-based
Conditions: test compound 1 μM, capsaicin 250 nM, relative to maximum ^45Ca uptake induced by capsaicin alone

O=C(Nc1nnc(-c2ccc(Br)cc2)s1)NC1CC2(CCC2)Oc2ccccc21 (racemic) [Example 21]	<50%
S=C(Nc1cccc2ccncc12)NC1CC2(CCC2)Oc2ccccc21 (stereo not drawn) [Example 83]	<50%
O=C(Nc1cccc2cnccc12)NC1CC2(CCC2)Oc2c(F)cc(F)cc21 (single isomer, unassigned; (-)) [Example 60]	<50%
O=C(Nc1ncc(-c2ccc(Br)cc2)s1)NC1CC2(CCC2)Oc2ccccc21 (racemic) [Example 17]	<50%
O=C(Nc1cccc2c(=O)[nH]ccc12)NC1CC2(CCC2)Oc2ccccc21 (stereo not drawn) [Example 30]	<50%
O=C(Nc1cccc2cnccc12)NC1CC2(CCOCC2)Oc2ccccc21 (racemic) [Example 2]	96.12%

Provide the documented % inhibition of ^45Ca uptake at 1 μM with Human TRPV1 expressing CHO cells (Homo sapiens) as the system for O=C(Nc1csc2cnccc12)NC1CC2(CCC2)Oc2ccccc21 (racemic) [Example 20]
<50%

Next up: O=C(Nc1cccc2nsnc12)NC1CC2(CCC2)Oc2ccccc21 (stereo not drawn) [Example 28]
<50%

Next up: O=C(Nc1cccc2cnccc12)NC1CC2(CCC2)S(=O)(=O)c2ccccc21 (racemic) [Example 82]
>50%

Next up: O=C(Nc1cccc2cnccc12)NC1CC2(CCC2)Oc2ccccc21 (single isomer, unassigned; (-)) [Example 5]
>50%

Next up: O=C(Nc1cccc2cnccc12)NC1CC2(CCC2)Oc2ccccc21 (racemic) [Example 3]
100%

Next up: O=C(Nc1cccc2nsnc12)NC1CC2(CCC2)Oc2ccccc21 (stereo not drawn) [Example 29]
<50%

====

Molecular target: Human TRPV1 expressing CHO cells (Homo sapiens)
Assay: Screening for TRPV1 antagonist using the 45Calcium uptake assay (inhibition of capsaicin induced cellular uptake of radioactive calcium)
Conditions: inhibition of capsaicin (250 nM) induced ^45Ca uptake
pIC50: −log10 of the molar value.
Measure name: pIC50

O=C(Nc1cccc2cnccc12)NC1CC2(CCC2)Oc2c(O)cccc21 (racemic)	6.11

1: CC(C)(C)c1nnc(NC(=O)NC2CC3(CCC3)Oc3ccccc32)s1 (racemic)
2: O=C(Nc1cccc2cnccc12)NC1CC2(CCC2)Oc2ccc(F)cc21 (single isomer, unassigned; (+)) [Example 43]
3: O=C(Nc1cccc2cnccc12)NC1CC2(CCC2)Oc2ccc(F)cc21 (racemic) [Example 42]
Give the ascending ranking of the items by reported pIC50. Rank the items, then write their labels in that order.
1, 3, 2

====

Biological target: Human TRPV1 expressing CHO cells (Homo sapiens, UniProt Q8NER1)
Construct: expressed in transfected cells; host or cells: CHO cells under G-418 selection
Test: Screening for TRPV1 antagonist using the 45Calcium uptake assay (inhibition of capsaicin induced cellular uptake of radioactive calcium)
Assay type: cell-based
Conditions: CHO, test compound 1 μM, capsaicin 250 nM, relative to maximum ^45Ca uptake induced by capsaicin alone
Measure name: inhibition at 1 µM

O=C(Nc1cccc2cnccc12)NC1CC2(CCC2)Oc2ccc(F)cc21 (racemic) [Example 42]	> 50%
O=C(Nc1ccc(Cl)c2cnccc12)NC1CC2(CCC2)Oc2ccc(Cl)cc21 (racemic) [Example 70]	< 50%
S=C(Nc1cccc2cnccc12)NC1CC2(CCC2)Oc2ccccc21 (stereo not shown) [Example 80]	> 50%

# next compound below
Quick one: inhibition at 1 µM for CC(=O)Nc1ccc2c(c1)C(NC(=O)Nc1cccc3cnccc13)CC1(CCC1)O2 (racemic) [Example 78] ?
< 50%

====

Target: Human TRPV1 expressing CHO cells (Homo sapiens, UniProt Q8NER1)
Construct: expressed in transfected cells; host or cells: CHO cells under G-418 selection
Assay: Screening for TRPV1 antagonist using the 45Calcium uptake assay (inhibition of capsaicin induced cellular uptake of radioactive calcium)
Type: cell-based
Conditions: CHO, test compound 1 μM, capsaicin 250 nM, relative to maximum ^45Ca uptake induced by capsaicin alone
Structures can show the parent of a compound that is named as a salt.
Known inhibition at 1 µM of a selection of molecules

Before answering, review these 10 worked examples.
CC(=O)n1ncc2cc(NC(=O)NC3CC4(CCC4)Oc4ccccc43)ccc21 (racemic)	< 50%
Cc1cc(C)nc(NC(=O)NC2CC3(CCC3)Oc3ccccc32)n1 (racemic)	< 50%
O=C(NCc1ccco1)NC1CC2(CCC2)Oc2ccccc21 (racemic)	< 50%
Cc1nccc2c(NC(=O)NC3CC4(CCC4)Oc4ccc(Cl)cc43)cccc12 (racemic)	> 50%
O=C(NCc1ccc(C(F)(F)F)cc1)N[C@H]1CC2(CCC2)Oc2ccccc21	10.9%
O=C(Nc1cccc2cnccc12)NC1CC2(CCC2)Oc2cc(OC(F)F)ccc21 (racemic) [Example 54, Hydrochloride]	> 50%
Cc1nccc2c(NC(=O)NC3CC4(CCC4)Oc4ccccc43)cccc12 (racemic)	> 50%
O=C(Nc1cccc2cnccc12)NC1CC2(CCC2)Sc2ccccc21 (racemic)	> 50%
Cc1ccc2nc(NC(=O)NC3CC4(CCC4)Oc4ccccc43)sc2c1 (racemic)	< 50%
O=C(Nc1nc2cc(Cl)ccc2o1)NC1CC2(CCC2)Oc2ccccc21 (racemic)	< 50%

Quick one: inhibition at 1 µM for Cc1cc2c(NC(=O)NC3CC4(CCC4)Oc4cc(Cl)ccc43)cccc2cn1 (racemic) ?
> 50%

Next up: O=C(Nc1ccc(Cl)c2cnccc12)NC1CC2(CCC2)Oc2ccccc21 (racemic)
> 50%

Next up: Cn1cc2cc(NC(=O)NC3CC4(CCC4)Oc4ccccc43)ccc2n1 (racemic)
< 50%

Next up: COc1ccc2nc(NC(=O)NC3CC4(CCC4)Oc4ccccc43)sc2c1 (racemic)
< 50%

Next up: Cc1ccc2c(c1)OC1(CCC1)CC2NC(=O)Nc1cccc2cnccc12 (racemic)
> 50%

Next up: O=C(Nc1cccc2cnccc12)NC1CC2(CCC2)Oc2cc(Cl)c(Cl)cc21 (racemic)
> 50%
